This section presents compounds with their documented IC50 values.
- System: IL-1β release upon NLRP3 activation in peripheral blood mononuclear cells (PBMC)
- assay_method_text: PBMC IC50 determination assay: inhibition of IL-1β release upon NLRP3 activation
- Type: cell-based
- measurement_parameters: PBMC, PBMC primed with LPS 3 h, compound 30 min, stimulated with ATP (5 mM) or nigericin (10 μM) 1 h; IL-1β by ELISA (Protocol A) or HTRF (Protocol B)

{"compound": "CCc1cc2c(=O)n(CC(=O)Nc3ncc(F)cn3)nc(C(C)C)c2o1 [Compound 23]", "IC50": "0.1 to 1 µM"}
{"compound": "CC(C)c1nn(C2(C(=O)Nc3ncc(F)cn3)CC2)c(=O)c2cn(C(C)C)nc12 [Compound 51]", "IC50": "0.1 to 1 µM"}
{"compound": "CNc1cc2c(C3CC3)nn(CC(=O)Nc3ncccn3)c(=O)c2s1 [Compound 112]", "IC50": "0.1 to 1 µM"}
{"compound": "CCN(C)c1cc2c(C(C)C)nn(CC(=O)Nc3ncccn3)c(=O)c2s1 [Compound 97]", "IC50": "3 to 10 µM"}
{"compound": "CCc1nc2c(C(C)C)nn(CC(=O)Nc3ncc(F)cn3)c(=O)c2s1 [Compound 36]", "IC50": "≤ 0.1 µM"}
{"compound": "CC(C)c1nn(CC(=O)Nc2ncco2)c(=O)c2sc(C3CC3)cc12 [Compound 76]", "IC50": "0.1 to 1 µM"}

Field IC50 (entry Cc1nn(CC(=O)Nc2ncccn2)c(=O)c2ccc(C3CC3)nc12 [Compound 34] ) reads 1 to 3 µM

Reported IC50 ( CCOC(=O)Cc1cnc(NC(=O)Cn2nc(C)c3oc(C4CC4)cc3c2=O)nc1 [Compound 92] ) = 0.1 to 1 µM

Recorded result, CC(C)c1nn(CC(=O)N[C@@H]2CCCN(C3CCC3)C2)c(=O)c2sc(C#N)cc12 [Compound 30] , IC50: 3 to 10 µM

---

- Tested on: IL-1β release upon NLRP3 activation in peripheral blood mononuclear cells (PBMC)
- assay_method_text: PBMC IC50 determination assay: inhibition of IL-1β release upon NLRP3 activation
- Assay type: cell-based
- measurement_parameters: PBMC, PBMC primed with LPS 3 h, compound 30 min, stimulated with ATP (5 mM) or nigericin (10 μM) 1 h; IL-1β by ELISA (Protocol A) or HTRF (Protocol B)
pIC50: −log10 of the molar value.
Listing of recorded pIC50 by entry.

Sample answers from the record:
{"compound": "CCOC(=O)c1cnc(NC(=O)Cn2nc(C(C)C)c3oc(C4CC4)cc3c2=O)nc1", "pIC50": "6.00 to 7.00"}
{"compound": "CC(C)c1nn(CC(=O)N[C@@H]2CCCN(C3CC3)C2)c(=O)c2sc(Cl)cc12", "pIC50": "5.52 to 6.00"}
{"compound": "COc1cc2c(=O)n(CC(=O)Nc3ncccn3)nc(C(C)C)c2o1", "pIC50": "5.00 to 5.52"}

pIC50 for IL-1β release upon NLRP3 activation in peripheral blood mononuclear cells (PBMC) with input `CCn1cc2c(=O)n(CC(=O)Nc3ncncc3F)nc(C(C)C)c2n1` equals 5.52 to 6.00

Tested on IL-1β release upon NLRP3 activation in peripheral blood mononuclear cells (PBMC), the item `CC(C)Nc1cc2c(C(C)C)nn(CC(=O)Nc3ncccn3)c(=O)c2s1` showed pIC50 equal to 6.00 to 7.00

pIC50 of `CC(C)c1nn(CC(=O)Nc2ncco2)c(=O)c2cc(C3CC3)oc12` , assay on IL-1β release upon NLRP3 activation in peripheral blood mononuclear cells (PBMC), is 6.00 to 7.00

Record `CCc1nn(CC(=O)Nc2ncccn2)c(=O)c2cn(CC)nc12` has IL-1β release upon NLRP3 activation in peripheral blood mononuclear cells (PBMC) pIC50 equal to 4.30 to 5.00

The observed pIC50 for `CC(C)c1nn(CC(=O)Nc2ncc(F)cn2)c(=O)c2cc(Cl)sc12` when tested with IL-1β release upon NLRP3 activation in peripheral blood mononuclear cells (PBMC) stands at 6.00 to 7.00

Assay IL-1β release upon NLRP3 activation in peripheral blood mononuclear cells (PBMC), sample `CCc1cc2c(=O)n(CC(=O)Nc3ncc(F)cn3)nc(C(C)C)c2s1` , pIC50 read: 6.00 to 7.00

The compound `CC(C)c1nn(CC(=O)Nc2ncc(Cl)cn2)c(=O)c2cn(C(C)C)nc12` , tested on IL-1β release upon NLRP3 activation in peripheral blood mononuclear cells (PBMC), showed pIC50 of 6.00 to 7.00
